Tm: recorded values
B1: Ribonuclease HI, P0A7Y4 (parent)
chain: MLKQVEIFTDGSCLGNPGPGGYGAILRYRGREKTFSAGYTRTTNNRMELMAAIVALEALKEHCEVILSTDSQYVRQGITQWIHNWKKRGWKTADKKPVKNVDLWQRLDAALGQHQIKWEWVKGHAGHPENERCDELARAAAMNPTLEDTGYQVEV

Variants of: B1
test settings: Escherichia coli (strain K12); pH 3; Thermal; CD; glycine-HCl 10 mM; NaCl 0.1 M; reversible: yes; structure 2RN2; whole UniProt chain shown
Write the value in °C as a bare number.

[
  {
    "variant string": "A24V",
    "experimental readout": "Tm",
    "unit abbreviation": "°C",
    "measured number": 52.5
  },
  {
    "variant string": "A52V",
    "experimental readout": "Tm",
    "unit abbreviation": "°C",
    "measured number": 55.6
  },
  {
    "variant string": "H62D",
    "experimental readout": "Tm",
    "unit abbreviation": "°C",
    "measured number": 52.3
  },
  {
    "variant string": "G23A",
    "experimental readout": "Tm",
    "unit abbreviation": "°C",
    "measured number": 52.4
  },
  {
    "variant string": "H62R",
    "experimental readout": "Tm",
    "unit abbreviation": "°C",
    "measured number": 50
  }
]

Pending variant:
Given E119V K60R , state its recorded Tm.
49.9
